IKKε (Homo sapiens) IC50, compiled from various sources.

Enter measured IC50, system IKKε (Homo sapiens), for the molecule shown: "CC1(COc2ccc(-c3c[nH]c4ncc(-c5cnn(C6COC6)c5)cc34)cc2C#N)COC1" < 300 nM

Look up and report IC50, with IKKε (Homo sapiens) as system, for C[C@H](O)C(=O)N1CCC(Oc2ccc(-c3cc(Nc4ccc(N5CCN(C6COC6)CC5)cc4)ncn3)cc2C#N)C(F)(F)C1 (stereo partly shown) < 100 nM

Write down measured IC50 (IKKε (Homo sapiens)) for this molecule. "COc1nc(Nc2cc(-c3ccc(OC4CCOCC4)c(C#N)c3)ncn2)ccc1N(C)CC(=O)N(C)C" < 100 nM

Write down measured IC50 (IKKε (Homo sapiens)) for this molecule. "COc1cc(C(=O)N[C@@H]2CCCNC2)ccc1-c1cc2nccc(-c3ccc(OC4CCOCC4)c(C#N)c3)c2o1" < 300 nM
